# Tested on: U2OS
# measurement notes: Multiplex assay against U2OS
# Assay type: toxicity, cell-based
# experimental context: human, 24 h, 1 µM, compound concentration 1 uM, replicate 1
// reported Population Hoechst High Intensity Objects (%) per item
measured quantity: Population Hoechst High Intensity Objects (%)

| compound | target system | assay value |
| --- | --- | --- |
| COc1ccc2[nH]c(I)c(CCNC(C)=O)c2c1 [IODOMELATONIN] | U2OS | 1 |
| O=C(NCCNCC(O)COc1ccc(O)cc1)N1CCOCC1.O=C(NCCNCC(O)COc1ccc(O)cc1)N1CCOCC1.O=C(O)/C=C/C(=O)O (centres undefined) [XAMOTEROL FUMARATE] | U2OS | 0 |
| C[C@H](NC(=O)CNC(=O)c1cccc(Cl)c1)c1ccccc1 | U2OS | 2 |
| CC(C)(O)C(=O)N1CCN(c2ccc(C(F)(F)F)c(C3=C(c4c[nH]c5ccccc45)C(=O)NC3=O)c2)CC1 | U2OS | 3 |
| CN1C[C@H](C(=O)N[C@]2(C)O[C@@]3(O)[C@@H]4CCCN4C(=O)[C@H](Cc4ccccc4)N3C2=O)C[C@@H]2c3cccc4[nH]cc(c34)C[C@H]21.CS(=O)(=O)O [DIHYDROERGOTAMINE MESYLATE] | U2OS | 0 |
| CN1CCN(c2ccc(Nc3c4ccccc4nc4ccccc34)cc2)CC1.Cl.Cl.O | U2OS | 1 |
| CSc1nc(NC2CCCC2)c([N+](=O)[O-])c(NC2CCCC2)n1 [GS-39783] | U2OS | 2 |
| Cc1cc(-c2ccc3c(c2)CC[C@H]3N2CC3(CCN(C(=O)Cc4cn5cc(C)sc5n4)CC3)C2)ncn1 [PF-5190457] | U2OS | 1 |
| COc1ccc2c(c1OCc1ccccc1)C[C@@H](C(=O)O)N(C(=O)C(c1ccccc1)c1ccccc1)C2 [OLODANRIGAN] | U2OS | 0 |

Attribution: ChEMBL document CHEMBL5058577
